# Test system: Aspergillus flavus
# test summary: Antifungal activity against Aspergillus flavus PTCC 5003 after 48 hrs by microplate alamar blue assay
# Assay type: functional
# recorded conditions: PTCC 5003, 48 h
Below is a list of entries, each paired with its recorded MIC value.
measure name: MIC (µg/mL)

>>> measurement("CCCCn1ccc(=O)c(O)c1C")
256
>>> measurement("O=c1cc(CCl)occ1O")
16
>>> measurement("CC(=O)N1CCN(c2ccc(OCC3COC(Cn4ccnc4)(c4ccc(Cl)cc4Cl)O3)cc2)CC1 (stereo not drawn) [KETOCONAZOLE]")
8
>>> measurement("CCCn1ccc(=O)c(O)c1C")
256
>>> measurement("CCN(CC)Cc1c[nH]c(C)c(O)c1=O")
512
>>> measurement("CCc1[nH]cc(CN(C)C)c(=O)c1O")
512
>>> measurement("CCc1[nH]cc(CN2CCCCC2)c(=O)c1O")
256
>>> measurement("Cc1cc(=O)c(O)co1")
512
>>> measurement("Cc1c(O)c(=O)ccn1-c1cccc(O)c1")
256
>>> measurement("CCc1[nH]cc(CN(CC)CC)c(=O)c1O")
512

* * *

MIC listing for selected molecules.
# Test system: Staphylococcus aureus
# test summary: Antibacterial activity against Staphylococcus aureus PTCC 1337 after 24 hrs by microplate alamar blue assay
# Format: functional
# recorded conditions: Staphylococcus aureus, PTCC 1337, 24 h
measure name: MIC (µg/mL)

>>> measurement("O=C(O)c1cn(C2CC2)c2cc(N3CCNCC3)c(F)cc2c1=O [CIPROFLOXACIN]")
0.5
>>> measurement("CCc1[nH]cc(CN(C)C)c(=O)c1O")
512
>>> measurement("Cc1c(O)c(=O)ccn1-c1cccc(O)c1")
16

* * *

Consider the following compounds and their measured -logMIC readings.
# System: Staphylococcus aureus
# test summary: Antibacterial activity against Staphylococcus aureus PTCC 1337 after 24 hrs by microplate alamar blue assay
# Type: functional
measure name: -logMIC

>>> measurement("Cc1c(O)c(=O)ccn1-c1ccccc1")
3.89
>>> measurement("Cc1cc(=O)c(O)c(C(=O)Nc2cccc3ccccc23)o1")
3.59
>>> measurement("O=c1cc(CO)occ1O [KOJIC ACID]")
3.59
>>> measurement("O=C(O)c1cc(=O)c(OCc2ccccc2)co1")
3.59
>>> measurement("CCN(CC)Cc1c[nH]c(C)c(O)c1=O")
4.19
>>> measurement("Cc1cc(=O)c(O)c(C(=O)Nc2cccnc2)o1")
4.19
>>> measurement("Cc1cc(=O)c(OCc2ccccc2)c(CO)o1")
3.59
>>> measurement("CCc1[nH]cc(CN2CCCCC2)c(=O)c1O")
3.29
>>> measurement("Cc1cc(=O)c(O)c(CO)o1")
3.59
>>> measurement("Cc1cc(=O)c(OCc2ccccc2)c(C(=O)Nc2cccc3ccccc23)o1")
3.59
>>> measurement("O=c1cc(CO)occ1OCc1ccccc1")
3.59
>>> measurement("Cc1cc(=O)c(O)co1")
3.59
>>> measurement("O=C(Nc1ccccc1)c1cc(=O)c(OCc2ccccc2)co1")
3.89
>>> measurement("Cn1cc(OCc2ccccc2)c(=O)cc1C(=O)Nc1ccccc1")
3.89
>>> measurement("Cc1cc(=O)oc2cc(NC(=O)c3cc(=O)c(OCc4ccccc4)co3)ccc12")
3.89
>>> measurement("Cc1cc(=O)c(OCc2ccccc2)c(C(=O)Nc2cnc3ccccc3c2)o1")
3.89
>>> measurement("Cc1cc(=O)oc2cc(NC(=O)c3cc(=O)c(O)cn3C)ccc12")
4.49
>>> measurement("Cc1[nH]cc(CN2CCCCC2)c(=O)c1O")
3.29
>>> measurement("Cc1cc(=O)c(O)c(C(=O)Nc2cnc3ccccc3c2)o1")
5.1
>>> measurement("Cc1cc(=O)c(OCc2ccccc2)c(C(=O)O)o1")
3.59
>>> measurement("Cc1c(O)c(=O)ccn1-c1cccc(O)c1")
3.29
>>> measurement("Cn1cc(O)c(=O)cc1C(=O)Nc1ccccc1")
4.8
>>> measurement("Cc1[nH]cc(CN(C)C)c(=O)c1O")
3.29
>>> measurement("CCc1[nH]cc(CN(CC)CC)c(=O)c1O")
3.29
>>> measurement("CCCCn1ccc(=O)c(O)c1C")
3.89
>>> measurement("Cc1cc(=O)c(OCc2ccccc2)c(C(=O)Nc2cccnc2)o1")
3.59
>>> measurement("CCc1[nH]cc(CN(C)C)c(=O)c1O")
3.29

* * *

A collection of molecules and their measured -logMIC
# System: Staphylococcus aureus
# test summary: Antibacterial activity against Staphylococcus aureus PTCC 1337 after 24 hrs by microplate alamar blue assay
# Assay type: functional
measure name: -logMIC

>>> measurement("CCCn1ccc(=O)c(O)c1C")
3.29
>>> measurement("O=c1cc(CCl)occ1O")
3.59
>>> measurement("Cc1cc(=O)oc2cc(NC(=O)c3cc(=O)c(OCc4ccccc4)cn3C)ccc12")
3.59
>>> measurement("Cc1cc(=O)c(OCc2ccccc2)c(C=O)o1")
4.19

* * *

# Test system: Staphylococcus aureus
# test summary: Antibacterial activity against Staphylococcus aureus PTCC 1337 after 24 hrs by microplate alamar blue assay
# Format: functional
# recorded conditions: Staphylococcus aureus, PTCC 1337, 24 h
This section presents molecules with their documented MIC values.
measure name: MIC

>>> measurement("Cc1c(O)c(=O)ccn1-c1ccccc1")
"128 µg/mL"
>>> measurement("CCc1[nH]cc(CN(CC)CC)c(=O)c1O")
"> 512 µg/mL"
>>> measurement("CCCn1ccc(=O)c(O)c1C")
"16 µg/mL"
>>> measurement("CCCCn1ccc(=O)c(O)c1C")
"256 µg/mL"
>>> measurement("Cc1[nH]cc(CN2CCCCC2)c(=O)c1O")
"16 µg/mL"
>>> measurement("CCN(CC)Cc1c[nH]c(C)c(O)c1=O")
"512 µg/mL"
>>> measurement("CCc1[nH]cc(CN2CCCCC2)c(=O)c1O")
"> 512 µg/mL"

* * *

# System: Aspergillus flavus
# test summary: Antifungal activity against Aspergillus flavus PTCC 5003 after 48 hrs by microplate alamar blue assay
# Type: functional
# recorded conditions: PTCC 5003, 48 h
measure name: MIC

>>> measurement("Cc1c(O)c(=O)ccn1-c1ccccc1")
"> 512 µg/mL"
>>> measurement("Cc1[nH]cc(CN2CCCCC2)c(=O)c1O")
"> 512 µg/mL"
>>> measurement("Cc1[nH]cc(CN(C)C)c(=O)c1O")
"> 512 µg/mL"

* * *

# Tested on: Staphylococcus aureus
# test summary: Antibacterial activity against Staphylococcus aureus PTCC 1337 after 24 hrs by microplate alamar blue assay
# Assay type: functional
# recorded conditions: Staphylococcus aureus, PTCC 1337, 24 h
measure name: MIC

>>> measurement("Cc1[nH]cc(CN(C)C)c(=O)c1O")
"> 512 µg/mL"
>>> measurement("O=c1cc(CCl)occ1O")
"> 512 µg/mL"
>>> measurement("Cc1cc(=O)c(O)co1")
"> 512 µg/mL"

This collection of values is drawn from ChEMBL document CHEMBL1137743.
